The measured values listed here are drawn from paper PMC9090415.

Readings of % inhibition Apol 40' for the listed compounds
Biological target: P. falciparum apicoplast DNA polymerase (Pf-apPOL) (Plasmodium falciparum, UniProt Q8ILY1)
Sequence (Q8ILY1 entry or part of it): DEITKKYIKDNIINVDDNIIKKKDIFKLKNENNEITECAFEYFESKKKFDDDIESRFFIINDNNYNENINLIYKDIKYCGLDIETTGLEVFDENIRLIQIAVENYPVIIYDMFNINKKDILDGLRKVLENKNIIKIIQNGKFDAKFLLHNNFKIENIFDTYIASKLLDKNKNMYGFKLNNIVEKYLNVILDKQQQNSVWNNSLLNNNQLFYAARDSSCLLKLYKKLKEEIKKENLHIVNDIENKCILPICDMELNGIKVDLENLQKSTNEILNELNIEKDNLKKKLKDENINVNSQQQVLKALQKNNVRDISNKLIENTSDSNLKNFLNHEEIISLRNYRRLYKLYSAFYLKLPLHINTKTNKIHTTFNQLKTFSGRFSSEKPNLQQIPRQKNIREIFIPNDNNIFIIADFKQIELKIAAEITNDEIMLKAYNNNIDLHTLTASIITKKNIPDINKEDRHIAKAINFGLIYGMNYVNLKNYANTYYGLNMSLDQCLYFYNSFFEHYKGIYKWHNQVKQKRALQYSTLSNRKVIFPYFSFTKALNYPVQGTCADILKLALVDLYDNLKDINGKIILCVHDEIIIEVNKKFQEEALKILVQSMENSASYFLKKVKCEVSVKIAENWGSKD
Experiment: Fluorescence-based high-throughput DNA polymerase assay (molecular beacon), primary screen and dose-response;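 note: compound concentration given in µM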
Format: biochemical
Settings: DRC-2, 40', concentration 20 (unit not given)
endpoint: % inhibition Apol 40' (%)

Cc1cc(C)c2c(O)nc(SCC(=O)c3ccc(O)c(O)c3)nc2n1 = 71
O=C(Cn1ccc2c(=O)[nH]ccc21)Nc1cccc(Cl)c1 [Molecule 23, O=C(Cn1ccc2c1cc[nH]c2=O)Nc1cccc(c1)Cl] = 65
CCOc1ccc(/C=C2\N=C(c3cc([N+](=O)[O-])cc([N+](=O)[O-])c3)OC2=O)cc1 = 68
O=C(Nc1cccc(C(=O)Nc2ccc(S(=O)(=O)[O-])c3cc(S(=O)(=O)[O-])cc(S(=O)(=O)[O-])c23)c1)Nc1cccc(C(=O)Nc2ccc(S(=O)(=O)[O-])c3cc(S(=O)(=O)[O-])cc(S(=O)(=O)[O-])c23)c1.[Na+].[Na+].[Na+].[Na+].[Na+].[Na+] = 56
CN(C)C1C(c2ccccc2)=C(c2ccccc2)SC(c2ccccc2)C1[N+](=O)[O-] (centres unmarked) = 53
CCCCCCCCCCCCCCCCCC(=O)CCN(C)C = 13
CCCCc1ccc(NC(=O)CSc2nc(O)c(C#N)c(C3CCCCC3)n2)c(C)c1 = 48
Nc1c(S(=O)(=O)O)cc(Nc2ccccc2)c2c1C(=O)c1ccccc1C2=O = 81
